tested on: SK-MEL-5; assay: NCI tumour cell line growth inhibition, 48 h
Calls of active or inactive are those of the source. Rule as the data show it: active = GI50 up to about 1.1 µM and inactive = higher.
Give measured GI50 for each item. Keep answers brief.

Report value only: GI50, SK-MEL-5, CC(C)(C)OC(=O)NCC(=O)NC1C/C(=N\O)c2sccc21 (stereo unspecified)
> 100 µM (inactive)

Under SK-MEL-5, report GI50 for O=C(/C=C/c1ccccc1O)c1ccccc1Cl
42.3 µM (inactive)

Look up and report GI50, with SK-MEL-5 as system, for CN1C(=O)N(C)C2(CCN(CCCCCCF)CC2)C1=O
> 100 µM (inactive)

Give GI50; test system SK-MEL-5; compound OCCN(CCO)CCn1cnc2c(NCc3ccccc3)ncnc21
> 100 µM (inactive)

Return reported GI50 for target or system SK-MEL-5, item CC(C)C(Cl)CC/C(CBr)=C(\Cl)CCl (stereo unspecified) .
2.02 µM (inactive)

GET GI50 | system: SK-MEL-5 | item: O=C1/C(=C/c2ccc(O)cc2)CCC1CNc1ccccc1 (stereo unspecified)
16.8 µM (inactive)

Write down measured GI50 (SK-MEL-5) for this compound. COc1cccc(/C=C2\S/C(=N/Nc3nc(C)c(C)s3)NC2=O)c1O
50.2 µM (inactive)

Please look at CCCCCCCCCCCCCCCCCC(=O)OCC(CN(C)CCN(C)C)OC(=O)CCCCCCCCCCCCCCCCC (stereo unspecified) and tell me its recorded GI50 on SK-MEL-5.
> 100 µM (inactive)

Param request: GI50 | system SK-MEL-5 | item Nn1c(CCCCCCCCc2nnc(COc3ccc(Cl)cc3Cl)n2N)nnc1COc1ccc(Cl)cc1Cl
38.5 µM (inactive)

Provide GI50, system SK-MEL-5, entry CN(C)Cc1cc(C(=O)/C=C/c2c(Cl)cccc2Cl)cc(CN(C)C)c1O
3.76 µM (inactive)

// fetch GI50; item: S=C1c2ccc(Cl)cc2-n2cnnc2C2CSCN12 (stereo unspecified) ; system: SK-MEL-5
> 100 µM (inactive)

====

system: M14; experiment: NCI tumour cell line growth inhibition, 48 h
Calls of active or inactive are those of the source. No stated cut-off is given here; in the data, active = GI50 up to about 1.1 µM and inactive = higher. Residues, ends and D or L forms follow the SMILES beside them. *: point of attachment. X38 = O=C(c1ccc(-c2ccc(Cl)cc2Cl)o1)*
Tick one outcome: Y for active, N for inactive

Fill in: this test's call for O=C(O)Cc1ccc(Nc2nc3cc(C(F)(F)F)ccc3nc2C(=O)O)cc1 is ___
N

Record request — test call for O=c1[nH]c(-c2ccc(Cl)cc2)cc2ccsc12
N

Tell me the assay call for CNC(=O)N1CN(c2ccccc2)C2(CCN(Cc3ccccc3)CC2)C1=O please.
N

Assay outcome for CCC(C)C1NC(=O)C2CCCN2C(=O)C(CC2CO2)OC(=O)CCNC(=O)C(C)N(C)C(=O)C(C(C)C)N(C)C1=O (centres undefined) : what was it?
Y

GET /call?item= Cc1ccc2c(O)cc(-c3ccsc3)nc2n1 returns the recorded outcome of this test.
N

# lookup: test call for N=C(c1cccs1)C1(N2CCCCC2)CCCCC1
N

Write down the call the test reported for this molecule. Item: COC(=O)C(CC(C)C)NC(=O)C(Cc1ccccc1)NC(=O)C1CCCN1C(=O)C(CO)NC(=O)c1ccc(-c2ccc(Cl)cc2Cl)o1 (centres undefined) (X38-SPFL-OMe; configuration not given here)
N

How did this test come out for NS(=O)(=O)c1ccc(NC(=O)c2cccc3c(Nc4ccc(S(N)(=O)=O)cc4)c4ccccc4nc23)cc1 ?
N

Entry O=C(O)C1CCCCN1c1ccccc1[N+](=O)[O-] (centres undefined) : call = ?
N

====

system: TK-10; assay: NCI tumour cell line growth inhibition, 48 h
The source made the active and inactive calls. No stated cut-off is given here; in the data, active = GI50 up to about 1.1 µM and inactive = higher. Square brackets hold non-standard residues; d marks the D form. Peptide text beside a SMILES is read from it. * marks the point of attachment. ξ: configuration not given here. NMeY = CN[C@@H](Cc1ccc(O)cc1)C(=O)O; Cbz = O=C(OCc1ccccc1)*; ξA = CC(N)C(=O)O
Result category, one only: T for active, F for inactive

Returns: the outcome recorded for CC1=CC(c2ccccc2)OP1(=O)c1ccccc1 (stereo not given) in this assay.
F

Outcome? O=C1NC(=S)S/C1=C/c1ccco1
F

Please share the test call associated with O=C(Nc1cc([N+](=O)[O-])cc([N+](=O)[O-])c1)OC1C2CCC1C1OC1C2 (stereo not given) .
F

// outcome(item) with item = O=C(/C=C/c1ccccc1)OCC1=C[C@@H](O)[C@@H]2C=CO[C@@H](OC3OC(CO)C(O)C(O)C3O)[C@H]12 (stereo not given in full)
F

For CC(=O)N1[C@H](C(=O)O)CS[C@H]1c1ccncc1 , which call appears in the assay record?
F

Outcome? C#CC[C@@H]1C(=O)N(Cc2ccc(OC)cc2)[C@@H](C(C)C)C(=O)N1Cc1ccc(OC)cc1
F

Could you please tell me the result logged for O=C(O)Cc1ccc(Nc2nc3cc(C(F)(F)F)ccc3nc2C(=O)O)cc1 in this assay?
F

Hi, sorry to bother you, what did the test record for CC(=O)c1ccc2c(c1)C(=O)c1sc(C(C)=O)cc1C2=O ?
F

Field: outcome | Entry: CC1=N/C(=C\c2ccc(C)cc2)C(=O)O1
F

Please let me know the test result on file for COc1ccc(CCCCl)c(C2=NCCc3ccccc32)c1 .
F

Hello, I am checking results. What call was entered for COc1ccc(C[C@@H](C(=O)N[C@@H](C)C(N)=O)N(C)C(=O)[C@@H]2CCCN2C(=O)[C@H](CC(C)C)NC(=O)C(C)NC(=O)OCc2ccccc2)cc1 (stereo not given in full) (Cbz-[ξA]LP[NMeY](Me)A-NH2) ?
F

How did this test come out for CC(O)c1cc2c(s1)C(=O)c1sccc1C2=O (stereo not given) ?
T

Dear colleague, could you share the recorded outcome for C=CC1(C)CCC2C(=CCC3C(C)(COC4OC(C(=O)O)C(O)C(O)C4O)C(O)CCC23C)C1.C=CC1(C)CCC2C(=CCC3C2(C)CC(O)C(O)C3(C)COC2OC(C(=O)O)C(O)C(O)C2O)C1 (stereo not given) when you have a moment?
F

Answer briefly: the call reported for Cc1ccc(NC(=O)COC(=O)c2cccc3c(=O)c4ccccc4[nH]c23)cc1 in this assay.
F

Called result for CCOc1ccccc1NC(=O)C(=O)c1c(O)c2ccc(O)cc2oc1=O
F

What call does the record list for CC(=O)c1csc2c1C(=O)c1ccccc1C2=O ?
F

What was the test verdict on Cc1[nH]c2ccccc2c1C1CC(=O)NC1=O (stereo not given) ?
F

Test call, this molecule: O=C1c2cc3c(cc2CC1Br)CCC3 (stereo not given)
F

Test call for this molecule, please: CN1C(OCc2ccccc2)c2c(ccc3c2OCO3)C2C=Cc3cc4c(cc3C21)OCO4 (stereo not given)
F

Which result was noted for this molecule in the test: COc1ccc(C2S/C(=C\c3ccc(OC)cc3OC)C(=O)N2NC(=O)Cc2ccccc2)cc1 (stereo not given)
F

====

test system: Malme-3M; test: NCI tumour cell line growth inhibition, 48 h
The source made the active and inactive calls. Cut-off read from the data, not from the text of the source: active = GI50 up to about 1.1 µM and inactive = higher.
// allowed return values: y = active, n = inactive

Give the logged outcome of this assay for the following molecule: C[C@@H]1CC[C@]2(C)C3(C)CC[C@]2(OC3=O)[C@@]12CC(c1ccoc1)OC2=O (stereo partly specified)
n

Which outcome was assigned to COc1cc(/C=C/c2nc(N)nnc2C)cc(OC)c1OC in this test?
n

Could you please tell me the result logged for Brc1ccc2c(c1)C1=C(CO2)Cc2ccccc2O1 in this assay?
n

State the result this test recorded for CCCCC(=O)OCC(=O)[C@]1(O)Cc2c(O)c3c(c(O)c2[C@@H](OC2CC(NC(=O)C(F)(F)F)C(O)C(C)O2)C1)C(=O)c1c(OC)cccc1C3=O (stereo partly specified) .
y

Could you check what this test reported for Cc1cc2c(=O)cc(-c3ccc(Cl)cc3)oc2c(C(=O)O)c1C ?
n

Assay result, entry Cn1cc/c(=N\N=c2/ccn(C)c3ccccc23)c2ccccc21 — outcome?
n

====

tested on: MDA-MB-231; experiment: NCI tumour cell line growth inhibition, 48 h
The source made the active and inactive calls. Cut-off read from the data, not from the text of the source: active = GI50 up to about 1.1 µM and inactive = higher.
So I've got a bunch of compounds here, and I need their GI50 values.

Please look at this compound and report its GI50: O=P1(NCCCl)OCCC(OO)N1CCCl (configuration not stated)
> 100 µM (inactive)

Provide measured GI50 value, entry: CC(C)=CCC/C(=C/CC/C(=C\CCc1ccoc1)C(=O)O)C(=O)O
> 100 µM (inactive)

Output measured GI50 for this item: CCOC(=O)c1cn2c(n1)sc1cc(F)ccc12
92.7 µM (inactive)

Output measured GI50 for this item: Nc1ncc(CN2CCOCC2)c(-c2ccccc2O)n1
> 100 µM (inactive)

Provide one value: measured GI50 of Cc1ccc(S(=O)(=O)NC(=O)Nc2nnc(S(N)(=O)=O)s2)cc1
> 100 µM (inactive)

Supply reported GI50 belonging to this compound: NC(=O)C1CCCNC1 (configuration not stated)
> 100 µM (inactive)

Tell me its GI50 given C=C1C(=O)OC2CC(C)C(C(CC(C)=O)OC(C)=O)=CCC12 (configuration not stated) as the entry.
13.5 µM (inactive)

Recorded values, source ChEMBL document CHEMBL1201862.
